assay_protocol: Inhibition of Alcaligenes HDAH using Boc-Lys(trifluoroacetyl)-AMC as substrate preincubated for 30 mins followed by substrate addition measured after 60 mins by trypsin-based fluorescence assay
Some compounds, each annotated with its measured pKi.
Kindly note that pKi refers to -log10 of the concentration in mol/L and answer with the value alone.

Previously resolved entries follow.
> print(dat)
                                test.smiles  measured.value
1  O=C(NO)C(F)(F)C(F)(F)C(F)(F)C(F)(F)C(F)(F)C(F)(F)C(=O)Nc1ccc(Cl)cc1            7.07
2  Cc1ccccc1NC(=O)C(F)(F)C(F)(F)C(F)(F)C(F)(F)C(F)(F)C(F)(F)C(=O)NO            6.21
3  Cc1cccc(NC(=O)C(F)(F)C(F)(F)C(F)(F)C(F)(F)C(F)(F)C(F)(F)C(=O)NO)c1            6.35

So what's the measured pKi for this one? COc1ccc(NC(=O)C(F)(F)C(F)(F)C(F)(F)C(F)(F)C(F)(F)C(F)(F)C(=O)NO)cc1
6.74

So what's the measured pKi for this one? O=C(NO)C(F)(F)C(F)(F)C(F)(F)C(F)(F)C(F)(F)C(F)(F)C(=O)Nc1cccc(Cl)c1
6.77

So what's the measured pKi for this one? O=C(NO)C(F)(F)C(F)(F)C(F)(F)C(F)(F)C(F)(F)C(F)(F)C(=O)Nc1ccccc1Cl
6.62

So what's the measured pKi for this one? O=C(NO)C(F)(F)C(F)(F)C(F)(F)C(F)(F)C(F)(F)C(F)(F)C(=O)Nc1ccc(F)cc1
6.48

So what's the measured pKi for this one? Cc1ccc(NC(=O)C(F)(F)C(F)(F)C(F)(F)C(F)(F)C(F)(F)C(F)(F)C(=O)NO)cc1C
6.96

###

assay_protocol: Inhibition of Pseudomonas aeruginosa PA0321 using Boc-Lys(trifluoroacetyl)-AMC as substrate preincubated for 30 mins followed by substrate addition measured after 60 mins by trypsin-based fluorescence assay
Some compounds, each annotated with its measured Ki.

Previously resolved entries follow.
> print(dat)
                                test.smiles  measured.value
1  O=C(NO)C(F)(F)C(F)(F)C(F)(F)C(F)(F)C(F)(F)C(F)(F)C(=O)Nc1ccccc1          700 nM
2  O=C(NO)C(F)(F)C(F)(F)C(F)(F)C(F)(F)C(F)(F)C(F)(F)C(=O)Nc1cccc2cc3ccccc3cc12         9000 nM
3  COc1ccc(NC(=O)C(F)(F)C(F)(F)C(F)(F)C(F)(F)C(F)(F)C(F)(F)C(=O)NO)cc1          370 nM

Okay, next one:
So what's the measured Ki for this one? O=C(NO)C(F)(F)C(F)(F)C(F)(F)C(F)(F)C(F)(F)C(F)(F)C(=O)Nc1cccc(-c2cn(-c3ccccc3)nn2)c1
> 50000 nM

###

Some compounds, each annotated with its measured Ki.
assay_protocol: Inhibition of Pseudomonas aeruginosa PA3774 using Boc-Lys(trifluoroacetyl)-AMC as substrate preincubated for 30 mins followed by substrate addition measured after 60 mins by trypsin-based fluorescence assay
// units = nM; emit number, no label

So what's the measured Ki for this one? O=C(NO)C(F)(F)C(F)(F)C(F)(F)C(F)(F)C(F)(F)C(F)(F)C(=O)Nc1ccc(-c2ccccc2)cc1
46

So what's the measured Ki for this one? CC(=O)Nc1ccc(NC(=O)C(F)(F)C(F)(F)C(F)(F)C(F)(F)C(F)(F)C(F)(F)C(=O)NO)cc1
320
